Source of measurements: ChEMBL document CHEMBL3872265

- assaySummary: Cytotoxicity against LPS/INF-gamma-stimulated mouse RAW264.7 cells assessed as cell viability at 100 uM by alamar blue assay relative to control
- Type: toxicity
- settings: LPS/INF-gamma-stimulated RAW264.7 cells, read-out: Activity
measuredMetric: viability at 100 µM (%)
Only the number, expressed in %, is required.

>>> endpointresult("COc1c(O)cc(-c2cc(=O)c3c(O)cc(O)cc3o2)cc1O")
119

Recorded viability at 100 µM of COc1cc(-c2cc(=O)c3c(O)cc(O)cc3o2)cc(O)c1OC , please.
96

Recorded viability at 100 µM of COc1ccc(-c2cc(=O)c3c(O)cc(O)cc3o2)cc1 , please.
115

Recorded viability at 100 µM of COc1ccc(-c2cc(=O)c3c(O)cc(O)cc3o2)cc1OC , please.
109

Recorded viability at 100 µM of O=c1c(O)c(-c2ccc(O)cc2)oc2cc(O)cc(O)c12 , please.
138

* * *

- Tested on: RAW264.7
- assaySummary: Inhibition of LPS/INF-gamma-stimulated nitric oxide production in mouse RAW264.7 cells measured after 16 hrs
- Assay type: functional, cell-based
- settings: RAW264.7, 16 h
measuredMetric: IC50

# count of solved cases: 2
>>> endpointresult("COc1cc(-c2cc(=O)c3c(O)cc(O)cc3o2)cc(OC)c1O")
"8 µM"
>>> endpointresult("O=C1C[C@@H](c2cc(O)c(O)c(O)c2)Oc2cc(O)ccc21")
"> 100 µM"

Here is the next item to consider.
Recorded IC50 of O=C1C[C@@H](c2ccc(O)cc2)Oc2cc(O)cc(O)c21 , please.
60 µM

* * *

IC50 reference
- Test system: RAW264.7
- assaySummary: Inhibition of LPS/INF-gamma-stimulated nitric oxide production in mouse RAW264.7 cells measured after 16 hrs
- Format: functional, cell-based
- settings: RAW264.7, 16 h
Only the number, expressed in µM, is required.

# count of solved cases: 5
>>> endpointresult("O=c1c(O)c(-c2ccc(O)cc2)oc2cc(O)cc(O)c12")
15
>>> endpointresult("COc1c(O)cc(-c2oc3cc(O)ccc3c(=O)c2O)cc1O")
14
>>> endpointresult("COc1cc(-c2oc3cc(O)ccc3c(=O)c2O)cc(OC)c1O")
63
>>> endpointresult("O=C1C[C@@H](c2cc(O)cc(O)c2)Oc2cc(O)cc(O)c21")
12
>>> endpointresult("O=c1cc(-c2ccc(O)cc2)oc2cc(O)cc(O)c12")
14

Here is the next item to consider.
Recorded IC50 of O=c1c(O)c(-c2cc(O)c(O)c(O)c2)oc2cc(O)ccc12 , please.
42

* * *

- assaySummary: Cytotoxicity against LPS-stimulated mouse RAW264.7 cells assessed as cell viability at 100 uM by alamar blue assay relative to control
- Type: toxicity
- settings: LPS-stimulated RAW264.7 cells, read-out: Activity
viability at 100 µM reference
Only the number, expressed in %, is required.

# count of solved cases: 4
>>> endpointresult("COc1ccc(-c2cc(=O)c3c(O)cc(O)cc3o2)cc1OC")
112
>>> endpointresult("COc1cc(-c2cc(=O)c3c(O)cc(O)cc3o2)cc(O)c1OC")
106
>>> endpointresult("O=c1c(O)c(-c2ccc(O)cc2)oc2cc(O)cc(O)c12")
141
>>> endpointresult("COc1c(O)cc(-c2cc(=O)c3c(O)cc(O)cc3o2)cc1O")
112

Here is the next item to consider.
Recorded viability at 100 µM of COc1ccc(-c2cc(=O)c3c(O)cc(O)cc3o2)cc1 , please.
99
